Let's look at some compounds and their measured inhibition at 1 µM.
# testTarget: human NE transporter (Homo sapiens, UniProt P23975)
# Construct: expressed in transfected cells; host or cells: MDCK cells
# Sequence (P23975 whole entry): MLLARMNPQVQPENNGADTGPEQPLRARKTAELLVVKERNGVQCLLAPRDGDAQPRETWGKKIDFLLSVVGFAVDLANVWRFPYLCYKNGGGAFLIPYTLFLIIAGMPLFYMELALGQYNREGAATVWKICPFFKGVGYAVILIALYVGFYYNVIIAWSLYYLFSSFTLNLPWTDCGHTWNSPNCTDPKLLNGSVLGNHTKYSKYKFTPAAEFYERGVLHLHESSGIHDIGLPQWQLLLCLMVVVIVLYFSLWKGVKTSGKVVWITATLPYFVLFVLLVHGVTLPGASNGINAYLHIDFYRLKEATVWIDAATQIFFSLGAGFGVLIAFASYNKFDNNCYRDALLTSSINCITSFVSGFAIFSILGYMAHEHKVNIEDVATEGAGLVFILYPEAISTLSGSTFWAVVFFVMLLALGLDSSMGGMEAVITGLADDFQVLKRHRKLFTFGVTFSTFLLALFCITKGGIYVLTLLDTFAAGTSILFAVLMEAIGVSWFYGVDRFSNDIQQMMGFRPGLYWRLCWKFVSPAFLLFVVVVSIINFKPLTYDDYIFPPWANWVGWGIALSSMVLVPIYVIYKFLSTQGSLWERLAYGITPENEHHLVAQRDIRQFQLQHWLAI
# methodSummary: Inhibition of [3H]NE uptake in cells expressing the recombinant human NE transporter
# Type: cell-based
# settings: 1 μM compound, MDCK cells expressing the NE transporter, read-out: Uptake inh. % at 1 μM NE
# Protocol: The ability of the 1-heteroaryl-3-azabicyclo[3.1.0.]hexane of the invention for inhibiting transport of norepinephrine (NE) and/or dopamine (DA) and/or serotonin (5-HT) were evaluated using cell lines (such as the HEK 293 cell line) that stably express recombinant human NE, DA, and 5-HT transporters, respectively. […]
// note: answer is a bare numeric in %

Reference set (2 entries):
CN1CC2CC2(c2coc3ccccc23)C1 (centres unmarked)    82
CN1CC2CC2(c2ccc3ncccc3c2)C1 (centres unmarked)    13

What the record says about CN1CC2CC2(c2cc3cc(F)ccc3s2)C1 (centres unmarked) : inhibition at 1 µM is 70

response.value for c1cnc2ccc(C34CNCC3C4)cc2c1 (centres unmarked) (field: inhibition at 1 µM) = 68

For this compound ( c1ccc2c(C34CNCC3C4)coc2c1 (centres unmarked) ), measured inhibition at 1 µM is 77

Sure, the documented inhibition at 1 µM for CN1CC2CC2(c2cc3ccc(F)cc3s2)C1 (centres unmarked) is 88

Just so you know, measured inhibition at 1 µM for Cc1ccc(C23CNCC2C3)s1 (centres unmarked) came out at 59

----------
# testTarget: human NE transporter (Homo sapiens, UniProt P23975)
# Construct: expressed in transfected cells; host or cells: MDCK cells
# methodSummary: Inhibition of [3H]NE uptake in cells expressing the recombinant human NE transporter
# Format: cell-based
# settings: 1 μM compound, MDCK cells expressing the NE transporter, read-out: Uptake inh. % at 1 μM NE
So basically: inhibition at 1 µM at 80% or higher? That is 1. Lower than 80%? That is -1.

Field: example entries. Status: answers known.
CN1CC2CC2(c2csc3ccc(Cl)cc23)C1 (stereo not shown)    -1
CCN1CC2CC2(c2cc3ccccc3n2C)C1 (stereo not shown)    -1
Fc1ccc2sc(C34CNCC3C4)cc2c1 (stereo not shown)    1
CN1CC2CC2(c2cc3ccccc3n2C)C1 (stereo not shown)    -1
CCN1CC2CC2(c2ccc3c(ccn3C)c2)C1 (stereo not shown)    -1

[in] Say whether `c1ccc2sc([C@]34CNC[C@H]3C4)cc2c1` shows inhibition at 1 µM of 80% or more.
[out] 1

[in] Form field: inhibition at 1 µM at least 80%? Entry: `CN1C[C@H]2C[C@]2(c2cc3ccccc3s2)C1`
[out] -1

----------
compounds and their reported IC50
# testTarget: human 5-HT transporter (Homo sapiens, UniProt P31645)
# Construct: expressed in transfected cells; host or cells: HEK 293 cells
# Sequence (P31645 whole entry): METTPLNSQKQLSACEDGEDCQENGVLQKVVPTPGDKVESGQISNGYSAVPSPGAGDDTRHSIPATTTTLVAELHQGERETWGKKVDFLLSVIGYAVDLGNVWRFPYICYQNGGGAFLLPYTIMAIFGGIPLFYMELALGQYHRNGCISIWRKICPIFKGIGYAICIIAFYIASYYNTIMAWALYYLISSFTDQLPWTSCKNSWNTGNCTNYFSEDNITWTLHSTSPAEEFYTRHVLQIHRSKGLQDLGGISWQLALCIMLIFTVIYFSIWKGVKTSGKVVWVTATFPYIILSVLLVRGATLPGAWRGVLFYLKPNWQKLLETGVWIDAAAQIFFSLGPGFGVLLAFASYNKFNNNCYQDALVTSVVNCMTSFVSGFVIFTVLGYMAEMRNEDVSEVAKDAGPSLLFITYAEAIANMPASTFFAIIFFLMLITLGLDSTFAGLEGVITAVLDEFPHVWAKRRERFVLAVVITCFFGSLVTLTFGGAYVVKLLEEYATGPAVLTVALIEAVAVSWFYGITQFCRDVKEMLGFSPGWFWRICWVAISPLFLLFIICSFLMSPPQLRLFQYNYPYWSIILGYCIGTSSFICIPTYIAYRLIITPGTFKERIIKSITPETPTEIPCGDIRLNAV
# methodSummary: Inhibition of [3H]5-HT uptake in cells expressing the recombinant human 5-HT transporter
# Format: cell-based
# settings: HEK 293 cells expressing the 5-HT transporter
State just the number; it will be interpreted in nM.

c1ccc2c(C34CNCC3C4)coc2c1 (centres unmarked)    188

# IC50 (compound: `c1ccc2sc([C@@]34CNC[C@H]3C4)cc2c1` ) is 481

For reference, reported IC50 for c1ccc2sc(C34CNCC3C4)cc2c1 (centres unmarked) stands at 88

CN1CC2CC2(c2ccc3c(ccn3C)c2)C1 (centres unmarked) has a reported IC50 of 154

Briefly, IC50 measured for CCN1CC2CC2(c2ccc3c(ccn3C)c2)C1 (centres unmarked) : 308
